# Test system: SK-MEL-2 (human malignant melanoma)
# experiment_notes: SRB cytotoxicity test, SK-MEL-2
# Format: cell-based
# measurement_parameters: Homo sapiens, SK-MEL-2; Table 3, 48 hours; read-out: Cytotoxicity IC50, SK-MEL-2
IC50: recorded values
Report as a plain number; the unit µg/mL is understood.

Here is how some molecules turned out for IC50.
molecule | attribute_measured | observed_measurement
C=C[C@]1(C)CCC2[C@@]3(C)CCC[C@@](C)(CO)C3CC[C@@]2(C)O1 (single isomer, unassigned; ent-18) [compound (h), ent-18-hydrorxy-13-epimanoyl oxide] | IC50 | 11.3
C=C[C@]1(C)C=C2CC[C@@H]3[C@](C)(CCC[C@@]3(C)C(=O)O)[C@H]2CC1 | IC50 | 11.2

Summary for this molecule, CC(C)(O)c1ccc2c(c1)CC[C@H]1[C@](C)(C(=O)O)CCC[C@]21C [compound (k), 15-hydroxydehydroabietic acid] : IC50 is 88.8

Summary for this molecule, C=C1CC[C@H]2O[C@]2(C)CC[C@@H]2[C@@H]1CC2(C)C [compound (l), caryophyllene oxide] : IC50 is 18.6

###

# System: SK-OV-3 (human ovarian tumor)
# experiment_notes: SRB cytotoxicity test, SK-OV-3
# Format: cell-based
# measurement_parameters: Homo sapiens, SK-OV-3; Table 3, 48 hours; read-out: Cytotoxicity IC50, SK-OV-3
IC50: recorded values
Report as a plain number; the unit mg/L is understood.

Here is how some compounds turned out for IC50.
compound | assayed_system | IC50, mg/L
C=C[C@]1(C)CCC2[C@@]3(C)CCC[C@@](C)(CO)C3CC[C@@]2(C)O1 (single isomer, unassigned; ent-18) [compound (h), ent-18-hydrorxy-13-epimanoyl oxide] | SK-OV-3 (human ovarian tumor) | 12.7
C=C1CC[C@H]2O[C@]2(C)CC[C@@H]2[C@@H]1CC2(C)C [compound (l), caryophyllene oxide] | SK-OV-3 (human ovarian tumor) | 23.7
CC(C)(O)c1ccc2c(c1)CC[C@H]1[C@](C)(C(=O)O)CCC[C@]21C [compound (k), 15-hydroxydehydroabietic acid] | SK-OV-3 (human ovarian tumor) | 142

# evaluate next
Test item "C=C[C@]1(C)C=C2CC[C@@H]3[C@](C)(CCC[C@@]3(C)C(=O)O)[C@H]2CC1" ; SK-OV-3 (human ovarian tumor); reported IC50 was 12.1
